system: Human immunodeficiency virus 1; assay: microbe, parasite or virus in culture; details: Human immunodeficiency virus 1, 3B, MT4, 96 h
Description: Antiviral activity against HIV1 3B infected in human MT4 cells coinfected with HTLV1 assessed as reduction in virus-induced cytopathogenicity after 4 days by MTT assay
assay endpoint: EC50 (nM)
I only need the number, in nM, no unit after it.

Lookup result for `CC[C@@H]1NC(=O)[C@H]([C@H](O)[C@H](C)C/C=C/CO)N(C)C(=O)[C@H](C(C)C)N(C)C(=O)[C@H](CC(C)C)N(C)C(=O)[C@H](CC(C)C)N(C)C(=O)[C@@H](C)NC(=O)[C@H](C)NC(=O)[C@H](CC(C)C)N(C)C(=O)[C@H](C(C)C)NC(=O)[C@H](CC(C)C)N(C)C(=O)CN(C)C1=O` ; measured EC50: 460

Lookup result for `C/C=C/C[C@@H](C)[C@@H](O)[C@H]1C(=O)N[C@@H](CC)C(=O)N(C)CC(=O)N(C)[C@@H](C(C)C)C(=O)N[C@@H](C(C)C)C(=O)N(C)[C@@H](CC(C)C)C(=O)N[C@@H](C)C(=O)N[C@H](C)C(=O)N(C)[C@@H](CC(C)C)C(=O)N(C)[C@@H](CC(C)C)C(=O)N(C)[C@@H](C(C)C)C(=O)N1C` ; measured EC50: 54

Lookup result for `C/C=C/C[C@@H](C)[C@@H](O)[C@H]1C(=O)N[C@@H](CC)C(=O)N(C)CC(=O)N(C)[C@@H]([C@@H](C)CC)C(=O)N[C@@H](C(C)C)C(=O)N(C)[C@@H](CC(C)C)C(=O)N[C@@H](C)C(=O)N[C@H](C)C(=O)N(C)[C@@H](CC(C)C)C(=O)N(C)[C@@H](CC(C)C)C(=O)N(C)[C@@H](C(C)C)C(=O)N1C` ; measured EC50: 47

Lookup result for `C/C=C/C[C@@H](C)[C@@H](O)[C@H]1C(=O)N[C@@H](CC)C(=O)N(C)CC(=O)N(C)[C@@H](CC(C)C)C(=O)N[C@@H](C(C)C)C(=O)N(C)[C@@H](CC(C)C)C(=O)N[C@@H](C)C(=O)N[C@H](C)C(=O)N(C)[C@@H](CC(C)C)C(=O)N(C)[C@@H](CC(C)C)C(=O)N(C)[C@@H](C(C)C)C(=O)N1C` ; measured EC50: 450

Lookup result for `C/C=C/C[C@@H](C)[C@@H](O)[C@H]1C(=O)N[C@@H](CC)C(=O)N(C)CC(=O)N(C)[C@@H](CC(C)C)C(=O)N[C@@H](C(C)C)C(=O)N(C)[C@@H](CC(C)C)C(=O)N[C@@H](C)C(=O)N[C@H](C)C(=O)N(C)[C@@H](CC(C)(C)O)C(=O)N(C)[C@@H](CC(C)C)C(=O)N(C)[C@@H](C(C)C)C(=O)N1C` ; measured EC50: 255

Lookup result for `C/C=C/C[C@@H](C)[C@@H](O)[C@H]1C(=O)N[C@@H](CC)C(=O)N(C)CC(=O)N(C)[C@@H](CC(C)(C)O)C(=O)N[C@@H](C(C)C)C(=O)N(C)[C@@H](CC(C)C)C(=O)N[C@@H](C)C(=O)N[C@H](C)C(=O)N(C)[C@@H](CC(C)C)C(=O)N(C)[C@@H](CC(C)C)C(=O)N(C)[C@@H](C(C)C)C(=O)N1C` ; measured EC50: 279
